target.system: Fuc(a1-3)[Gal(b1-4)]GlcNAc(b1-3)Gal(b1-3)[Fuc(a1-4)]GlcNAc
assay.overview: glycan array binding signal (z-score within array); higher = stronger binding
condition.summary: glycan notation: IUPAC condensed, linker removed
About 410 targets per protein were measured; listed, in parts, are those with the strongest signals and a random draw of the rest.
Assign glycan array binding signal (z-score) to each entry below.

Need glycan array binding signal (z-score), item MCL (Mus musculus), Q9Z2H6 (protein) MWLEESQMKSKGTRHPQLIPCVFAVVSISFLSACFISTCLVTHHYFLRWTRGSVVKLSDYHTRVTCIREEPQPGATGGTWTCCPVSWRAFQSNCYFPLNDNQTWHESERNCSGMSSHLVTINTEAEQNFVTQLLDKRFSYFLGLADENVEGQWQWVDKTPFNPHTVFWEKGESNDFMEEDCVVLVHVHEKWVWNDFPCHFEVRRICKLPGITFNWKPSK
0.601

Can you check Mermaid2 (Stilbonema majum) (protein) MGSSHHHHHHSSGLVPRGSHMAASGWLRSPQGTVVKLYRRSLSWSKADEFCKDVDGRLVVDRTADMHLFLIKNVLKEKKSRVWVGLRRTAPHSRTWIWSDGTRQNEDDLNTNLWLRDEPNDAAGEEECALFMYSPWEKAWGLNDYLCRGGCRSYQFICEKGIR next?
-0.144

Also need Langerin K299A/K313A (Homo sapiens), Q9UJ71 (protein) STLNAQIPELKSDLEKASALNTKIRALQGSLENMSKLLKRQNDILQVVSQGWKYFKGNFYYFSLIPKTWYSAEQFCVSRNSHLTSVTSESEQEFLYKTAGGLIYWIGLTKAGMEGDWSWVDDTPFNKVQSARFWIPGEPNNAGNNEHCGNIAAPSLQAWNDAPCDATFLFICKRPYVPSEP , thanks.
0.313

Continue with AT5G01260(PC)(40) (Arabidopsis thaliana), Q9LFB0 (protein) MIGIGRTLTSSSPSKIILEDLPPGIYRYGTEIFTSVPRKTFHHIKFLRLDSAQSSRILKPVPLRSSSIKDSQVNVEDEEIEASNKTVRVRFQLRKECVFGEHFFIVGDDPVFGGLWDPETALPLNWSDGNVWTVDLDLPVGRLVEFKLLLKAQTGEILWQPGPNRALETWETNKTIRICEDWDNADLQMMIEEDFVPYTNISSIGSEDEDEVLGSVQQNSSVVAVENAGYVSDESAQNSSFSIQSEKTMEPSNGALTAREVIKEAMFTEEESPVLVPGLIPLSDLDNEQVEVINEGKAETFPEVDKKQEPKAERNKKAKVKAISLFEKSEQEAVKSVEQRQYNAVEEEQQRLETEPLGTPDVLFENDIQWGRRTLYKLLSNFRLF
0.431

Source listed as the supplement of paper PMC8728848.
